experiment: ATG_E_Box_CIS: Attagene CIS-FACTORIAL HepG2 Assay for human Enhancer Box (E-box) (AID 2282936); details: HepG2 E-box cis-reporter transcription, actives raise or lower the signal
Calls of active or inactive are those of the source. How the source made its calls: active means hit-call score of the fitted dose curve at least 0.9, where 1 is the maximum; inactive means score below 0.9.
Your answer must be one of the following: active, inactive

(Q) # fetch the recorded call for COCC(=O)O here
(A) inactive

(Q) Item: O=S(=O)(O)c1ccc(N=Nc2c(O)ccc3ccccc23)cc1
(A) inactive

(Q) Item: O=C(Nc1ccccc1)c1cc(Cl)ccc1O
(A) inactive

(Q) Item: C=CC(=O)OCCCCCCOC(=O)C=C
(A) active

(Q) Item: C=C[C@@]1(C)CC(=O)[C@]2(O)[C@@]3(C)[C@@H](O)CCC(C)(C)[C@@H]3[C@H](O)[C@H](OC(C)=O)[C@@]2(C)O1
(A) inactive

(Q) Item: CC/C=C\CCOC(=O)c1ccccc1O
(A) inactive

(Q) Item: CCCCCCCCCCCCCC(=O)OC(C)C
(A) inactive

(Q) Item: Nc1cccc(N)n1
(A) inactive

(Q) Item: O=c1c(O)c(-c2ccc(O)cc2O)oc2cc(O)cc(O)c12
(A) inactive

(Q) Item: CCCCCCCCCCCC(C)=O
(A) inactive

(Q) Item: CCCCC1CCC(=O)O1 (centres undefined)
(A) inactive

(Q) Item: C=CCOC(=O)c1ccc(C(=O)OCC=C)c(C(=O)OCC=C)c1
(A) active

(Q) Item: O=C(Oc1ccccc1)c1ccccc1C(=O)Oc1ccccc1
(A) inactive

(Q) Item: Nc1ccnc(=O)[nH]1
(A) inactive

(Q) Item: C1CNCCN1
(A) inactive

(Q) Item: CC12CCC(CC1)C(C)(C)O2
(A) inactive

(Q) Item: CC(C)(CO)C(O)C(=O)NCCCO (centres undefined)
(A) inactive

(Q) Item: CCOC(=O)c1ccc(C)cc1
(A) inactive

(Q) Item: CC(=O)OC1CCCCC1
(A) inactive

(Q) Item: C=C[Si](OCCOC)(OCCOC)OCCOC
(A) inactive

(Q) Item: CCCCC(C=O)CC (centres undefined)
(A) inactive

(Q) Item: O=C(O)c1cc(O)c2ccccc2c1O
(A) active

(Q) Item: CC(C)c1ccc(O)c(C(C)C)c1
(A) inactive

(Q) Item: C=C(C)C(=O)OCC(O)COc1ccc(C(C)(C)c2ccc(OCC(O)COC(=O)C(=C)C)cc2)cc1 (centres undefined)
(A) inactive

(Q) Item: CCCCNS(=O)(=O)c1ccccc1
(A) inactive

(Q) Item: C=C(C)C(=O)OCCOC(=O)C(=C)C
(A) inactive

(Q) Item: CCCCCCCO
(A) inactive

(Q) Item: O=C(O)CCCC(=O)O
(A) inactive

(Q) Item: CC(C)(C)C1CCC(=O)CC1
(A) inactive

(Q) Item: Clc1cc(Cl)c(Cl)c(Cl)c1Cl
(A) inactive

(Q) Item: C=CCCCCCCCCC=O
(A) inactive

(Q) Item: C=CCCCCCCCCOC(C)=O
(A) inactive

(Q) Item: CC(=O)C(C)C
(A) inactive

(Q) Item: CC(C)C(=O)OCCOc1ccccc1
(A) inactive

(Q) Item: COC(=O)CC(C)CCC=C(C)C (centres undefined)
(A) inactive

(Q) Item: CCOC(=O)OC(=O)OCC
(A) inactive

(Q) Item: CCOC(=O)c1ccccc1C
(A) inactive

(Q) Item: CCOC(=O)CC(=O)c1ccccc1
(A) inactive

(Q) Item: CC(=O)OC1CCCCC1C(C)(C)C (centres undefined)
(A) inactive

(Q) Item: CCCCOC(=O)CCC(C)=O
(A) inactive

(Q) Item: CC(C)CCCCCOC(=O)CS
(A) inactive

(Q) Item: O=C1CCCCCCCCCCC1
(A) inactive

(Q) Item: CC/C=C\C/C=C\C/C=C\CCCCCCCC(=O)OC
(A) active

(Q) Item: CCc1occc(=O)c1O
(A) inactive

(Q) Item: CCCCOC(=O)C(C)CC (centres undefined)
(A) inactive

(Q) Item: O=C1CCCCC1C1CCCCC1 (centres undefined)
(A) inactive

(Q) Item: Nc1ccc(C(=O)OCCCOC(=O)c2ccc(N)cc2)cc1
(A) inactive

(Q) Item: CCOC(=O)C1=NN(c2ccc(Cl)cc2Cl)C(C)(C(=O)OCC)C1 (centres undefined)
(A) inactive

(Q) Item: C=CC(C)(CCC=C(C)C)OC(=O)C=Cc1ccccc1 (centres undefined)
(A) inactive
